test system: human red blood cells (RBCs); experiment: Hemolysis assay; type: cell-based; conditions: red cells of human, 1 h, 16
Where a SMILES comes first, the peptide text is derived from it.

{"molecule": "CC[C@H](C)[C@H](NC(=O)[C@H](CC(=O)O)NC(=O)[C@H](Cc1ccccc1)NC(=O)[C@H](CC(C)C)NC(=O)CN)C(=O)N[C@H](C(=O)N[C@@H](CCCCN)C(=O)N[C@@H](CCCCN)C(=O)N[C@@H](C)C(=O)N[C@@H](C)C(=O)N[C@@H](CCC(=O)O)C(=O)N[C@@H](CO)C(=O)N[C@@H](Cc1ccccc1)C(N)=O)[C@@H](C)CC [Peptide I9A] (H-GLFDIIKKAAESF-NH2)", "Percentage of hemolysis at 16 μg/mL": "0.0%"}
{"molecule": "CC[C@H](C)[C@H](NC(=O)[C@H](C)NC(=O)[C@H](CC(=O)O)NC(=O)[C@H](Cc1ccccc1)NC(=O)[C@H](CC(C)C)NC(=O)CN)C(=O)N[C@@H](CCCCN)C(=O)N[C@@H](CCCCN)C(=O)N[C@H](C(=O)N[C@@H](C)C(=O)N[C@@H](CCC(=O)O)C(=O)N[C@@H](CO)C(=O)N[C@@H](Cc1ccccc1)C(N)=O)[C@@H](C)CC [Peptide I5A] (H-GLFDAIKKIAESF-NH2)", "Percentage of hemolysis at 16 μg/mL": "0.0%"}
{"molecule": "CC[C@H](C)[C@H](NC(=O)[C@H](CCCCN)NC(=O)[C@H](CCCCN)NC(=O)[C@@H](NC(=O)[C@@H](NC(=O)[C@H](CC(=O)O)NC(=O)[C@H](Cc1ccccc1)NC(=O)[C@H](CC(C)C)NC(=O)CN)[C@@H](C)CC)[C@@H](C)CC)C(=O)N[C@@H](C)C(=O)N[C@@H](CCC(=O)O)C(=O)N[C@@H](CO)C(=O)N[C@@H](Cc1ccccc1)C(N)=O [aurein 1.2] (H-GLFDIIKKIAESF-NH2)", "Percentage of hemolysis at 16 μg/mL": "0.4%"}
